test: Pharmacokinetics of MB-905 in three pre-formulations in mice; format: in vivo; settings: CD1, mouse, plasma, po, 3 mg/kg, 5% Tween80 + 95% PEG400, 3 mg/kg (p.o.)
parameter measured: Tmax (min)
Reply numerically in min, unit not repeated.

Just so you know, measured Tmax for c1coc(CNc2ncnc3[nH]cnc23)c1 came out at 15

----------
experiment: Toxicokinetics in the 28-day study; format: in vivo, mice; conditions: female, CD1, mouse, in vivo, po, 250 mg/kg, female mice; 250 mg/kg; Day 28
parameter measured: Cmax (ng/mL)
Reply numerically in ng/mL, unit not repeated.

Just so you know, measured Cmax for c1coc(CNc2ncnc3[nH]cnc23)c1 [MB-905, kinetin] came out at 716
